TEST PROTOCOL: Evaluation of conversion rate to active form in buffer solution (Experimental Example 1)
Assay type: physicochemical
DETAILS: pH6.0, 1 hr, 37° C., 25 umol/L in buffer solution
QUANTITY: Production rate of Alvocidib (%)

- COMPOUND: "CN1CC[C@H](c2c(OC(=O)N(CCF)CC3CCCCN3)cc(O)c3c(=O)cc(-c4ccccc4Cl)oc23)[C@H](O)C1 (stereo partly shown)"
  QUANTITY: "Production rate of Alvocidib"
  OBS VALUE: 16.9
- COMPOUND: "CCN(C[C@H]1CCCCN1)C(=O)Oc1cc(O)c2c(=O)cc(-c3ccccc3Cl)oc2c1[C@H]1CCN(C)C[C@H]1O"
  QUANTITY: "Production rate of Alvocidib"
  OBS VALUE: 5.7
- COMPOUND: "CCN(C[C@@H]1CCCCN1)C(=O)Oc1cc(O)c2c(=O)cc(-c3ccccc3Cl)oc2c1[C@H]1CCN(C)C[C@H]1O [Example 1, ditrifluoroacetate]"
  QUANTITY: "Production rate of Alvocidib"
  OBS VALUE: 6.3
- COMPOUND: "CC(C)N(CC1CCCCN1)C(=O)Oc1cc(O)c2c(=O)cc(-c3ccccc3Cl)oc2c1[C@H]1CCN(C)C[C@H]1O (stereo partly shown)"
  QUANTITY: "Production rate of Alvocidib"
  OBS VALUE: 8.1

----------
TEST PROTOCOL: Evaluation of conversion rate to active form in buffer solution (Experimental Example 1)
Assay type: physicochemical
DETAILS: pH7.0, 1 hr, 37° C., 25 umol/L in buffer solution
Protocol: For Examples 1 to 16 and Comparative Examples 1 to 14, the attrition rate of the test compound and the conversion rate of the test compound to Alvocidib in a buffer solution were calculated by the following method. Examples 1 to 16 and Comparative Examples 1 to 14 were each left in buffer solutions adjusted to pH 5.0, 5.5, 6.0, 6.5, 7.0 and 7.4, respectively, at a concentration of 25 umol/L at 37° C. […]

- COMPOUND: "CN1CC[C@H](c2c(OC(=O)N(C)C[C@@H]3CCCCN3)cc(O)c3c(=O)cc(-c4ccccc4Cl)oc23)[C@H](O)C1"
  Residual rate: "55.3%"
- COMPOUND: "CC(C)N(CC1CCCCN1)C(=O)Oc1cc(O)c2c(=O)cc(-c3ccccc3Cl)oc2c1[C@H]1CCN(C)C[C@H]1O (stereo partly shown)"
  Residual rate: "52.8%"
- COMPOUND: "CN1CC[C@H](c2c(OC(=O)N(CCF)CC3CCCCN3)cc(O)c3c(=O)cc(-c4ccccc4Cl)oc23)[C@H](O)C1 (stereo partly shown)"
  Residual rate: "22.0%"
- COMPOUND: "CCNC(=O)Oc1cc(O)c2c(=O)cc(-c3ccccc3Cl)oc2c1[C@H]1CCN(C)C[C@H]1O [Comparative Example 1, reference compound]"
  Residual rate: "0.9%"
- COMPOUND: "CN1CC[C@H](c2c(OC(=O)N(C)CC3CCCCN3)cc(O)c3c(=O)cc(-c4ccccc4Cl)oc23)[C@H](O)C1 (stereo partly shown)"
  Residual rate: "56.7%"
- COMPOUND: "CCN(CCC1CCCCN1)C(=O)Oc1cc(O)c2c(=O)cc(-c3ccccc3Cl)oc2c1[C@H]1CCN(C)C[C@H]1O (stereo partly shown)"
  Residual rate: "35.7%"
- COMPOUND: "CN1CC[C@H](c2c(OC(=O)N(Cc3ccccc3)CC3CCCCN3)cc(O)c3c(=O)cc(-c4ccccc4Cl)oc23)[C@H](O)C1 (stereo partly shown)"
  Residual rate: "7.1%"
- COMPOUND: "CCN(C[C@H]1CCCCN1)C(=O)Oc1cc(O)c2c(=O)cc(-c3ccccc3Cl)oc2c1[C@H]1CCN(C)C[C@H]1O"
  Residual rate: "44.8%"
- COMPOUND: "CN1CC[C@H](c2c(OC(=O)N(CCCC(F)(F)F)CC3CCCCN3)cc(O)c3c(=O)cc(-c4ccccc4Cl)oc23)[C@H](O)C1 (stereo partly shown)"
  Residual rate: "8.4%"
- COMPOUND: "CCCN(C[C@H]1CCCCN1)C(=O)Oc1cc(O)c2c(=O)cc(-c3ccccc3Cl)oc2c1[C@H]1CCN(C)C[C@H]1O"
  Residual rate: "40.4%"
- COMPOUND: "CN1CC[C@H](c2c(OC(=O)N(CCC(F)(F)F)CC3CCCCN3)cc(O)c3c(=O)cc(-c4ccccc4Cl)oc23)[C@H](O)C1 (stereo partly shown)"
  Residual rate: "2.7%"
- COMPOUND: "COCCN(CC1CCCCN1)C(=O)Oc1cc(O)c2c(=O)cc(-c3ccccc3Cl)oc2c1[C@H]1CCN(C)C[C@H]1O (stereo partly shown)"
  Residual rate: "15.4%"
- COMPOUND: "CCN(C[C@@H]1CCCCN1)C(=O)Oc1cc(O)c2c(=O)cc(-c3ccccc3Cl)oc2c1[C@H]1CCN(C)C[C@H]1O [Example 1, ditrifluoroacetate]"
  Residual rate: "57.8%"

----------
TEST PROTOCOL: Evaluation of conversion rate to active form in buffer solution (Experimental Example 1)
Type: physicochemical
DETAILS: pH5.5, 0.5 hr
Assign class by Residual rate: not lower than 90% means 1.0; lower than 90% means 0.0.

- COMPOUND: "CNC(=O)Oc1cc(O)c2c(=O)cc(-c3ccccc3Cl)oc2c1[C@H]1CCN(C)C[C@H]1O [Comparative Example 2, reference compound]"
  ASSIGNED LABEL: 0.0
- COMPOUND: "CNC(=O)O[C@@H]1CN(C)CC[C@@H]1c1c(O)cc(O)c2c(=O)cc(-c3ccccc3Cl)oc12 [Comparative Example 5, reference compound]"
  ASSIGNED LABEL: 1.0
- COMPOUND: "CN1CC[C@H](c2c(O)cc(O)c3c(=O)cc(-c4ccccc4Cl)oc23)[C@H](OC(=O)[C@@H](N)CO)C1 [Comparative Example 9, reference compound]"
  ASSIGNED LABEL: 0.0
- COMPOUND: "CNCCN(C)C(=O)Oc1cc(O)c2c(=O)cc(-c3ccccc3Cl)oc2c1[C@H]1CCN(C)C[C@H]1O [Comparative Example 14, reference compound]"
  ASSIGNED LABEL: 0.0
- COMPOUND: "CC(C)[C@H](N)C(=O)O[C@@H]1CN(C)CC[C@@H]1c1c(O)cc(O)c2c(=O)cc(-c3ccccc3Cl)oc12 [Comparative Example 10, reference compound]"
  ASSIGNED LABEL: 1.0
- COMPOUND: "CCNC(=O)O[C@@H]1CN(C)CC[C@@H]1c1c(O)cc(O)c2c(=O)cc(-c3ccccc3Cl)oc12 [Comparative Example 4, reference compound]"
  ASSIGNED LABEL: 1.0
- COMPOUND: "CN1CC[C@H](c2c(O)cc(O)c3c(=O)cc(-c4ccccc4Cl)oc23)[C@H](OC(=O)CN)C1 [Comparative Example 8, reference compound]"
  ASSIGNED LABEL: 0.0

----------
TEST PROTOCOL: Evaluation of conversion rate to active form in buffer solution (Experimental Example 1)
Format: physicochemical
DETAILS: pH5.5, 0.5 hr
Measured Production rate of Alvocidib of individual entries

- COMPOUND: "CN1CC[C@H](c2c(O)cc(O)c3c(=O)cc(-c4ccccc4Cl)oc23)[C@H](OC(=O)[C@@H](N)CO)C1 [Comparative Example 9, reference compound]"
  Production rate of Alvocidib: "8.5%"
- COMPOUND: "CN1CC[C@H](c2c(O)cc(O)c3c(=O)cc(-c4ccccc4Cl)oc23)[C@H](OC(=O)CN)C1 [Comparative Example 8, reference compound]"
  Production rate of Alvocidib: "18.8%"
- COMPOUND: "CCOC(=O)O[C@@H]1CN(C)CC[C@@H]1c1c(O)cc(O)c2c(=O)cc(-c3ccccc3Cl)oc12 [Comparative Example 3, reference compound]"
  Production rate of Alvocidib: "1.1%"
- COMPOUND: "CN1CC[C@H](c2c(OC(=O)N(C)CCN)cc(O)c3c(=O)cc(-c4ccccc4Cl)oc23)[C@H](O)C1 [Comparative Example 13, reference compound]"
  Production rate of Alvocidib: "6.5%"
- COMPOUND: "CC(C)[C@H](N)C(=O)O[C@@H]1CN(C)CC[C@@H]1c1c(O)cc(O)c2c(=O)cc(-c3ccccc3Cl)oc12 [Comparative Example 10, reference compound]"
  Production rate of Alvocidib: "2.7%"
- COMPOUND: "CNC(=O)Oc1cc(O)c2c(=O)cc(-c3ccccc3Cl)oc2c1[C@H]1CCN(C)C[C@H]1O [Comparative Example 2, reference compound]"
  Production rate of Alvocidib: "70.5%"
- COMPOUND: "CCNC(=O)O[C@@H]1CN(C)CC[C@@H]1c1c(O)cc(O)c2c(=O)cc(-c3ccccc3Cl)oc12 [Comparative Example 4, reference compound]"
  Production rate of Alvocidib: "1.8%"
